Experiment: CellTiter-Glo luminescent readout of SW480 viability loss, NPC library primary (AID 1117343)
Settings: CellTiter-Glo luminescence; at 20 µM (top of the series) unless noted
Calls of active or inactive are those of the source.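 The calls were made as follows: active = compounds that lower viability of the colon cancer cells in the luminescence readout, with no numeric limit stated; inactive = the rest.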
Respond with a class label; see active, inactive

| compound | discrete_label |
| --- | --- |
| C=CCn1c(=O)n([C@@H]2O[C@H](CO)[C@@H](O)[C@H]2O)c2nc(N)[nH]c(=O)c21 | inactive |

What is the recorded call for this compound in the test? `COc1ccc2cc([C@H](C)C(=O)O)ccc2c1`
inactive

What is the recorded call for this compound in the test? CC(C)CCCC(C)N (centres undefined)
active

What is the recorded call for this compound in the test? `OC[C@@H](O)[C@@H](O[C@@H]1O[C@H](CO)[C@H](O)[C@H](O)[C@H]1O)[C@H](O)[C@@H](O)CO`
inactive

What is the recorded call for this compound in the test? `N=C(N)N1CCc2ccccc2C1`
inactive

What is the recorded call for this compound in the test? CC(C)(C)C(=O)C(Oc1ccc(Cl)cc1)n1ccnc1 (centres undefined)
inactive

What is the recorded call for this compound in the test? `C[C@H]1O[C@H](O[C@H]2[C@H](O)[C@@H](O)[C@@H](O[C@H]3[C@H](O)[C@@H](O)[C@H](O)O[C@@H]3CO)O[C@@H]2CO)[C@H](O)[C@@H](O)[C@@H]1N[C@H]1C=C(CO)[C@@H](O)[C@H](O)[C@H]1O`
inactive

What is the recorded call for this compound in the test? `CNC(=O)c1ccccc1Sc1ccc2c(/C=C/c3ccccn3)n[nH]c2c1`
active

What is the recorded call for this compound in the test? `OCC(CO)N[C@H]1C[C@](O)(CO)[C@@H](O)[C@H](O)[C@H]1O`
inactive

====

inhibition values, listed per item
Target: 6-phosphogluconate dehydrogenase, decarboxylating (Homo sapiens)
Test: 6PGD enzyme inhibitors, primary screen, biochemical, human, recombinant enzyme, NADPH absorbance (AID 1159550)
Conditions: recombinant 6PGD, NADPH absorbance 341 nm; at 10 µM; stronger effect = higher value
Answer in %, number only, no unit symbol.

| compound | numeric_readout |
| --- | --- |
| NCCc1cnc[nH]1 | 11.6 |

Request the reported inhibition associated with `Cc1cc(/C=C/c2ccc3cc(N(C)C)ccc3[n+]2C)c(C)n1-c1ccccc1`
5.46

Request the reported inhibition associated with `COc1cc(OC)c2c(=O)c(-c3ccccc3)c(C)oc2c1OC`
-9.49

Request the reported inhibition associated with CN1CCc2cccc3c2C1Cc1ccc(O)c(O)c1-3 (centres undefined)
-2.58

Request the reported inhibition associated with `CCCCC[C@@H](O)[C@H]1C(=O)O[C@H](C)[C@@H](O)/C=C/C=C/C=C/C=C/C=C(\C)[C@@H](O)C[C@H](O)C[C@H](O)C[C@H](O)C[C@H](O)C[C@H](O)C[C@@H]1O`
6.12

Request the reported inhibition associated with `Cn1c(=O)c2[nH]c(C3CCCC3)nc2n(C)c1=O`
-7.2

====

Test: ovarian cancer cell viability with rucaparib, profiling panel, oncology-focused library, rucaparib conditional (AID 1508598)
Settings: patient-derived ovarian cancer cells, CellTiter-Glo viability, 144 h; at 1.25 µM; OCI-P5x cells; without rucaparib; stronger effect = lower value
Sorting guide: entries reporting viability beneath 80% go in the 1 pile, the rest go in the -1 pile.

Solved cases (5 shown):
| molecule | discrete_label |
| --- | --- |
| CN(N=O)C(=O)N[C@@H]1[C@@H](O)[C@H](O)[C@@H](CO)O[C@@H]1O | -1 |
| Nc1ncn([C@H]2C[C@H](O)[C@@H](CO)O2)c(=O)n1 | 1 |
| CC(C)n1c(/C=C/[C@@H](O)C[C@@H](O)CC(=O)O)c(-c2ccc(F)cc2)c2ccccc21 | 1 |
| COc1cc2ncnc(Nc3ccc(F)c(Cl)c3)c2cc1OCCCN1CCOCC1 | -1 |
| C#Cc1cccc(Nc2ncnc3cc(OCCOC)c(OCCOC)cc23)c1 | -1 |

Just wondering, is viability of `CN(C)c1nc(N(C)C)nc(N(C)C)n1` below 80%?
1

Just wondering, is viability of `Cc1ccc(Nc2nccc(N(C)c3ccc4c(C)n(C)nc4c3)n2)cc1S(N)(=O)=O` below 80%?
-1

Just wondering, is viability of Nc1cccc2c1CN(C1CCC(=O)NC1=O)C2=O (stereo unspecified) below 80%?
-1

Just wondering, is viability of CCc1ccc(CCOc2ccc(CC3SC(=O)NC3=O)cc2)nc1 (stereo unspecified) below 80%?
-1

Just wondering, is viability of `COc1cc(Nc2c(C#N)cnc3cc(OCCCN4CCN(C)CC4)c(OC)cc23)c(Cl)cc1Cl` below 80%?
-1

Just wondering, is viability of `Cc1nc(Nc2ncc(C(=O)Nc3c(C)cccc3Cl)s2)cc(N2CCN(CCO)CC2)n1` below 80%?
1

Just wondering, is viability of `CN1CC[C@H](c2c(O)cc(O)c3c(=O)cc(-c4ccccc4Cl)oc23)[C@H](O)C1` below 80%?
1

Just wondering, is viability of `Cc1cc(O)c2c(c1)C(=O)c1cccc(O)c1C2=O` below 80%?
-1
